- test protocol: soluble on expression in E. coli; label from the status in PepcDB or PDB records
measured endpoint: soluble on expression in E. coli

sequence record	soluble on expression in E. coli
MSNVCIVYSSTHHGNTEKVLNKIKEKFPETVLIKAGDFNPDDFNRYEAIGFASGIFYFKFAKPVDKLFEQALVGSVQKLFFIYTAGAVNAGFEKTLRKKTEQSGKICMGIFGCKGFDTFGPLKLIGGLNKNSPNEKDFKNAIDFFEKNIINALEHHHHHH	soluble
MAAAVFHMEILQLNDLSSRLNPLATKNVVLHVCLGVRYFPNSACKSYKDAQALCKDGDGMSLTGPAQSMEKAFFKESVPKVDKCVIFLDGLALNHDEPYNFEFEDETHDGTKNYRFNSEDPNSQTAPNYIVFEYHVSGAHVFDRS	not soluble
MNDIAHNLAQVRDKISAAATRCGRSPEEITLLAVSKTKPASAIAEAIDAGQRQFGENYVQEGVDKIRHFQELGVTGLEWHFIGPLQSNKSRLVAEHFDWCHTIDRLRIATRLNDQRPAELPPLNVLIQINISDENSKSGIQLAELDELAAAVAELPRLRLRGLMAIPAPESEYVRQFEVARQMAVAFAGLKTRYPHIDTLSLGMSDDMEAAIAAGSTMVRIGTAIFGARDYSKK	soluble
MAHHHHHHMTAKSPCLDILPFIFREEQISNRIQTFPTETMKKAYLELKGYFEQYKIYAEKLINFSGSMNDENQRKEKLIIKLRCEYYAVIFSQASKLLHEYINFRNRLILELAINVNGLINSIHPNIIQRLNEDEQKELQKYCENIRSERTRSKLQNKFTVCFLNDLIIEDLNYEGVQKDMKGRNVFYSAGLKVSVFEDKALDLQKCEWAKILRD	not soluble
MSQESSVLSESQEQLANNPKIEDTSPPSANSRDNSKPVLPWDYKNKAIEIKSFSGYKVNFTGWIRRDVREERQRGSEFTASDVKGSDDKATRKKEPADEDPEVKQLEKEGEDGLDS	soluble
AGGEDRGDGEPVSVVTVRVQYLEDTDPFACANFPEPRRAPTCSLDGALPLGAQIPAVHRLLGAPLKLEDCALQVSPSGYYLDTELSLEEQREMLEGFYEEISKGRKPTLILRTQLSVRVNAILEKLYSSSGPELRRSLFSLKQIFQEDKDLVPEFVHSEGLSCLIRVGAAADHNYQSYILRALGQLMLFVDGMLGVVAHSDTIQWLYTLCASLSR	not soluble

# soluble on expression in E. coli lookup, item MKALTARQQEVFDLIRDHISQTGMPPTRAEIAQRLGFRSPNAAEEHLKALARKGVIEIVSGASRGIRLLQEEEEGLPLVGRVAADEPLLAQQHIEGHYQVDPSLFKPNADFLLRVSGMSMKDIGIMDGDLLAVHKTQDVRNGQVVVARIDDEVTVKRLKKQGNKVELLPENSEFKPIVVDLRQQSFTIEGLAVGVIRNGDWL
soluble

# repeat for MADYADAVVTQESALTTSPGETVTLTCRSSTGAVTTSNYASWVQEKPDHLFTGLIGGTNNRAPGVPARFSGSLIGDKAALTITGAQTEDEAIYFCALWYSNHWVFGGGTKLTVLGGGGGSGGGGSGGGGSGGGGS
soluble

# repeat for MGSDKIHHHHHHMKVGVALSGGVDSAVALYLLLKEGHEVKAFHMKTKEDEFFIKKEIKKKVCCSPSDTADAMRIAHFLGVEIEIVDVKEIFREKVIEPFKRDLLKGLTPNPCAHCNRFVKFGYLMDYVLNQGFDAFASGHYARIEFSEKYGRKVIKKGVDLKKDQSYFLARIEPWRIERLIFPNGIYTKEEIRKIAEEAGIHVAKKQESQDVCFIPDGSIENFLKDEGITLKDGDIITPEGEVVGRHFGYPLYTIGQRKGFKIEKFGRRYYVRGKIPEKNVVVVSDLEDVFFSGLIAEDPVWHVEVPEEFRCVCRVRKKSEEAPAVVKVKDNEVEVSFEKKVFAVTPGQIAAFYDGDTLLGGAIIKEGIR
not soluble

# repeat for MGSDKIHHHHHHMLTKTIIGLDVGRSAVKVVAFANGLYYRLTFPSLVSPAFPINDEGTAARAELETVEVLGKRYFTGDTARLQGGVNMSVGLSHDWTNGPEYLALVASTMKRLAALGVPGLDSPYIVLGTPASLFGRQKEALAQRTQAVVAAEMKVLPQPMGAYCNFFMDARGVPIKDRQKRPDGKNRSWAVVEVGHYTTDFLLMREGNYIERAAVSCEGVHFAAENLVRILAAKDIQATPLTAEEALRTGVIVDFGERRIEAQVAEAVDHVVQKIMTMADSVLSNDVRSLDGVLLAGGGAPILAAGLQKKWPHTVLLENPRMAVADGFCRYGVGQMLRRAMAAEKATA
not soluble

# repeat for MGSSHHHHHHSSGRENLYFQGHMVIIDNKHYLFIQKLGEGGFSYVDLVEGLHDGHFYALKRILCHEQQDREEAQREADMHRLFNHPNILRLVAYCLRERGAKHEAWLLLPFFKRGTLWNEIERLKDKGNFLTEDQILWLLLGICRGLEAIHAKGYAHRDLKPTNILLGDEGQPVLMDLGSMNQACIHVEGSRQALTLQDWAAQRCTISYRAPELFSVQSHCVIDERTDVWSLGCVLYAMMFGEGPYDMVFQKGDSVALAVQNQLSIPQSPRHSSALWQLLNSMMTVDPHQRPHIPLLLSQLEALQPPAPGQHTTQIL
soluble

# repeat for MCRLLGFATAGSNTNLNGVLGMQNVRDFRNLSEIHNDGWGAALITVPDESPYRRDGGAPTPETGTAIYKNTIAARHDPIFDELANTPARGGLWHLRLASSNLPLILENQQPFYANGLSFIHNGDISDDQGRNIITNRAFPVDPSIVQSTGGRSDSAIFFAVILQYIGFGFALDEAVAQAVRELRKSYPKSSYNCMIQSQDQFIALCAAGREVTSKRIVEIYDQYGRGEQARDYRVLRYRALGGNDDQSKGVVVASSGFDQRAEDGWTRLENDQMIVASNRTGEFRVRSI
soluble

# repeat for MGSDKIHHHHHHMNQSETDMIERIFTATDALMATVGLPNLSMHKIAREAKISPGTIYIYFKNKEELLTQFARYIFQNFQDVLKEGYDERQPFFQQYRKMWWNIWHFLEAEPTIMANMGQYESLPGFSDICQKWESDSIWYHFCVKAKAAGELADVPPPILFAISLESAFNIAFKCRHFCAQVSMEMLEAVIERTWLAIKN
not soluble

---

- test protocol: soluble on expression in E. coli; label from the status in PepcDB or PDB records
measured endpoint: soluble on expression in E. coli

In the examples that follow, each entry is paired with its recorded soluble on expression in E. coli.
sequence record	recorded result
MAHHHHHHMGVPTMERSHGRRSPDEVRYPHIVLNVLGQSYSSACIEVGSTRVVCAVHHPQQLIDEYRGSRGRVACTVRRSSRAQKHELAFRADVTPEKDLALALEGVVEQAVVLEKIPQLLVEVAVEILAEDGGLWDAIATGVCAALASGGFEMYDTFSACGAALLPDGSIVTDPSATEWNTAKATAVTCAMLNSGNMCFTAQRGSCEPTTALDLVMAALKGTLARKNVISSQLCEQFAF	not soluble
MGRIYLKKAKSEEDLLKRGRPFTVEVDELKIPFCVSPVTNTFDNKKKVFLTFLGPVKQFHEAIHLCITSLYRPTPYNKYELTTNVDDLTCTPDIKNMKESYLATIKSESLNASTIDNFLSKKTSIEKLTLGMKVLDNFQEDSAIFRMKYFWFTYSLEHAPIVLSKFQGTHLWMTDANIKNEDIISFLNTWQNSECDRKIFEIKVSEGMNPLNPDIVYEDIDVSDWDPAERPKEFNFVSTFFPENFNKVYDCSTWMDIKRSGDGKIASICITSNAFKFLVWD	not soluble
MKMKKKKRKMFDVFEHVLNQIVGNGVLLLRRIVIDRSKQHKHFHLIMTYKCIFVVAQHTLVDRLESDNNGEQKFQKLCFI	not soluble
MRVITVAGPPSVGKTSVVVKTATTLAAQGHRLGIVKFDSLSTSDDQVYRRAGLPVVVGLSGNVCPDHFFVSNIDDCVDWGRTHGVDILVAESAGLCNRCSPHVQGVQAICVVDNLSGVHTPRKIGPMLKLADVVVITKGDIVSQAEREVFAYNVRLANPRAQVMQFHGITGQGASDLAARMLCAPVVDALEGRRLRFSMPSAVCPYCIGETAIGVDHQRGNVRKMSFAEPARLEHHHHHH	soluble
HNPIDLMREIGALRQRGYNDRQIGEKIGVSTEYVNMIAGLLEKGEERLVSAVETGVLPLNLAIEISKTDAKGAQKALMDAYTQNKLRGRKLALVRRLIQQRELRGPQLHSNPLGRKPPKRALTSEGLVRAYQQEATRQKLLIKKAELTQSRLMFVREAFRKLRAD	not soluble

# soluble on expression in E. coli lookup, item MAHHHHHHMDSIVLPGEALGSCDAYVSGENTYSLQKEVRSAILGRRQLTTNGDGKQVISVANTKEFIPLPQVGDLVTCKVYRVTFNLIYCNIILLNSKAVRNSFRAFINKSDIHVYEGELGDNFECFKQGDIIRAKVLSVAQHGSYKLSTVGSDLGVILALSDGGERKRGKKQKKTKKQKKKKKKKEP
not soluble

# repeat for MGQPPAEEAEQPGALAREFLAAMEPEPAPAPAPEEWLDILGNGLLRKKTLVPGPPGSSRPVKGQVVTVHLQTSLENGTRVQEEPELVFTLGDCDVIQALDLSVPLMDVGETAMVTADSKYCYGPQGSRSPYIPPHAALCLEVTLKTAVDLEHHHHHH
soluble

# repeat for GMDISLLKQVVQSTNKIALSTAVNNEADVKIVNFVWYEAQPDTLYFSSVKTSPALKVYDQNPDIAFITIPNDGTAGNPYLRAQHVKLQRSTKTMTDLLPQYLETVPNYQQVWDAIGSTLVVFELKLTDLFVDAGVGGEKQTLTFN
soluble

# repeat for ALVGDNLEQIDARLVNSLPLFKDQEGRDVNVRVGRYGPYLERQVGVSEDGEPEYQRANLSDSTTPDELTLELAEKLFATPQSGRELGRNPKNNRMIVAKEGRFGPYVTELVNDDERTEVEAKAEEIVAAEREAEDLQRAAEGKRAKNWGTKTAAAQKEKRIAQIIEETLKPSTASLFKTMEPSSVTLDEALQLLALPREVGVDPSDNEVITAQNGRYGPYLKKGSDSRTLASEDQIFSITLDEARRIYAEPKRRGRGATSQSVIKQLGDNDVSGKPMSVRDGRFGPYVTDGTTNASLRRGDDPTQLTEARANELLSERRAKEAADGGSSKKATKKASKKTTKRVAKAGARKKK
not soluble
